# Read-out: Cytochrome P450 (CYP2B6), CYP2B6 (gene 1555)
# measurement-description: LTEA_HepaRG_CYP2B6: Life Technologies and Expression Analysis (LTEA) Assay for Cytochrome P450 (CYP2B6) using HepaRG (AID 2283481)
# condition-notes: mRNA level, 48 h; actives raise or lower the signal
Calls of active or inactive are those of the source. The calls were made as follows: active = hit-call score of the fitted dose curve at least 0.9, where 1 is the maximum; inactive = score below 0.9.
value-kind: AC50

Some entries whose results are on file:
COP(=S)(OC)Oc1ccc(SC)c(C)c1: 7.23 µM (active)
CCC(C)Nc1c([N+](=O)[O-])cc(C(C)(C)C)cc1[N+](=O)[O-] (stereo unspecified): 3.52 µM (active)
CCOC1Oc2ccc(OS(C)(=O)=O)cc2C1(C)C (stereo unspecified): 91.3 µM (active)
CCc1ccc(C(=O)NN(C(=O)c2cc(C)cc(C)c2)C(C)(C)C)cc1: 92.4 µM (active)
O=C(O)COc1ccc(Cl)cc1Cl: 20.8 µM (active)

Turning to the following compound.
*Q* State, in one line, measured AC50 of CCCN(CCOc1c(Cl)cc(Cl)cc1Cl)C(=O)n1ccnc1
*A* 31 µM (active)
